Each recorded value in this set is attributed to the supplement of paper PMC9732359.

TEST SUMMARY: protein stability index of a GFP-peptide fusion (yeast GPS) (PSI 1-4); higher = more stable; sorted into four equal gates, so the index is relative within each strain
MEASUREMENT CONDITIONS: doa10∆
I would appreciate it if you labelled entries 1 when protein stability index is 3 or higher, otherwise 0.

// known answers, use as guide
# ITEM SEQUENCE, CLASS ASSIGNMENT
measured = [
    ("GENDDDTLDGDLMDDMS [RPN3]", 0),
    ("RSGSNAAASLPSKKLKT [RPC82]", 0),
    ("NDKLIVDNDNWVYKTKG [RPN1]", 0),
]

Does LQMYSKIRRHPNIMLIF [FAS1] have a reported protein stability index of at least 3?
0

Does ELLNADHQHILRKLKKM [RPC53] have a reported protein stability index of at least 3?
0

Does EGWFYKRAASVARHIYM [RPS19A] have a reported protein stability index of at least 3?
0

Does VFMLDTKRLGTPESVKP [RGR1] have a reported protein stability index of at least 3?
0

Does TRAMEYLKFRELPAGQN [RPB2] have a reported protein stability index of at least 3?
0
